Data provenance is paper PMC9928118.

System: GST-tagged Cn
Assay: PEPperPRINT peptide microarray binding assay with GST-tagged Cn
Settings: max over the duplicate spots (Location on chip)

{"columns": ["Seq Text", "Target System", "Chip Fluorescence (max)"],
 "data": [
  ["HVSSSPDVTLKPPQHR [SeqRBMlowT_2147]", "GST-tagged Cn", 2.217],
  ["TFWTNPQYRLKLEEPD [SeqRBMlowT_264]", "GST-tagged Cn", 2.584],
  ["RAYMNPSVCFTDGGAR [SeqRBM_6787]", "GST-tagged Cn", 1.921],
  ["ASEANPEITVTPAELP [SeqRBMlowT_1250]", "GST-tagged Cn", 2.513],
  ["STSSLPTFSFSSPLSS [SeqRBMlowT_2357]", "GST-tagged Cn", 2.106],
  ["SFWTNPQFIITLQEED [SeqRBMlowT_7307]", "GST-tagged Cn", 2.363],
  ["RTYINPFMQFNRGGRK [SeqRBM_3856]", "GST-tagged Cn", 2.196]
]}
